PROCEDURE_DETAILS: U937 monocyte cytotoxicity, Trypan blue staining
Assay type: cell-based
CONDITION_CONTEXT: human; U937 monocytes, 16 hours, Trypan blue dead cells; read-out: LC50
Experimental: U937 monocytes (0.2 ml at 0.3 x 10^6/ml) were treated with each compound at different concentrations for 16 hours. The cells were then stained with Trypan blue to identify dead cells, and to calculate the LC50. Combined values were used to generate therapeutic indexes (TI)=LC50/IC50.
ASSAY_ENDPOINT: log10 of CC50 at 16 h (log10 of the value in µg/mL)

compound="Fc1cc(CNCCCCNCc2ccc(N3CCCC3)c(F)c2)ccc1N1CCCC1 [Compound 018]" recorded_result=-0.40
compound="Cc1cc(N2CCCC2)ccc1CNCCCCNCc1ccc(N2CCCC2)cc1C [Compound 020]" recorded_result=0.30
compound="c1cc(N2CCOCC2)ccc1CNCCNCc1ccc(N2CCOCC2)cc1 [Compound 001]" recorded_result=2.41
compound="c1cc(N2CCCCC2)ccc1CNCCNCc1ccc(N2CCCCC2)cc1 [Compound 004]" recorded_result=1.43
compound="c1csc(-c2ccc(CNCCNCc3ccc(-c4nccs4)cc3)cc2)n1 [Compound 011]" recorded_result=0.93
compound="c1ccc(CNCCNCc2ccc(-c3ccccn3)cc2)nc1 [Compound 008]" recorded_result=1.65
compound="c1cnc(-c2ccc(CNCCNCc3ccc(-c4ncccn4)cc3)cc2)nc1 [Compound 014]" recorded_result=2.61
compound="c1ccc(-c2ccc(CNCCNCc3ccc(-c4ccccc4)cc3)cc2)cc1 [Compound 015]" recorded_result=0.30
compound="c1cc(N2CCCC2)ccc1CNCCCNCc1ccc(N2CCCC2)cc1 [Compound 007]" recorded_result=0.51
compound="c1coc(-c2ccc(CNCCNCc3ccc(-c4ccco4)cc3)cc2)c1 [Compound 013]" recorded_result=0.74
compound="c1csc(-c2ccc(CNCCNCc3ccc(-c4cccs4)cc3)cc2)c1 [Compound 012]" recorded_result=0.26
compound="c1cc(N2CCCC2)ccc1CNCCCCCNCc1ccc(N2CCCC2)cc1 [Compound 017]" recorded_result=0.60
compound="c1cc(N2CCCC2)ccc1CNCCCCNCc1ccc(N2CCCC2)cc1 [Compound 006]" recorded_result=0.00
compound="c1ccc(-c2ccc(CNCCCCNCc3ccc(-c4ccccn4)cc3)cc2)nc1 [Compound 010]" recorded_result=1.34
compound="c1cnn(-c2ccc(CNCCNCc3ccc(-n4cccn4)cc3)cc2)c1 [Compound 009]" recorded_result=1.90
compound="c1cn(-c2ccc(CNCCNCc3ccc(-n4ccnc4)cc3)cc2)cn1 [Compound 003]" recorded_result=2.11
compound="Cc1cc(CNCCCCNCc2ccc(N3CCCC3)c(C)c2)ccc1N1CCCC1 [Compound 019]" recorded_result=0.00
compound="c1cc(N2CCCC2)ccc1CNCCNCc1ccc(N2CCCC2)cc1 [Compound 002]" recorded_result=0.85

----------
PROCEDURE_DETAILS: U937 monocyte cytotoxicity, Trypan blue staining
Type: cell-based
CONDITION_CONTEXT: human
ASSAY_ENDPOINT: CC50 at 16 h (µg/mL)

compound="c1ccc(CNCCNCc2ccccc2)cc1 [Benzathine, reference compound]" readout_unit=µg/mL recorded_result=400

----------
compounds and their reported TI
Test system: U937 monocytes
PROCEDURE_DETAILS: U937 monocyte cytotoxicity, Trypan blue staining
Assay type: cell-based
CONDITION_CONTEXT: therapeutic index (TI)=LC50/IC50
ASSAY_ENDPOINT: TI

chemical_structure=c1cc(N2CCOCC2)ccc1CNCCNCc1ccc(N2CCOCC2)cc1 assay_endpoint=TI recorded_result=13
chemical_structure=c1cc(N2CCCC2)ccc1CNCCNCc1ccc(N2CCCC2)cc1 assay_endpoint=TI recorded_result=11
chemical_structure=c1cc(N2CCCC2)ccc1CNCCCNCc1ccc(N2CCCC2)cc1 assay_endpoint=TI recorded_result=2.9
chemical_structure=c1ccc(-c2ccc(CNCCNCc3ccc(-c4ccccn4)cc3)cc2)nc1 assay_endpoint=TI recorded_result=96
chemical_structure=c1ccc(-c2ccc(CNCCCCNCc3ccc(-c4ccccn4)cc3)cc2)nc1 assay_endpoint=TI recorded_result=14.7
chemical_structure=c1csc(-c2ccc(CNCCNCc3ccc(-c4nccs4)cc3)cc2)n1 assay_endpoint=TI recorded_result=21.3
chemical_structure=c1csc(-c2ccc(CNCCNCc3ccc(-c4cccs4)cc3)cc2)c1 assay_endpoint=TI recorded_result=1.6
chemical_structure=c1ccc(CNCCNCc2ccc(-c3ccccn3)cc2)nc1 assay_endpoint=TI recorded_result=30
chemical_structure=c1cc(N2CCCC2)ccc1CNCCCCCNCc1ccc(N2CCCC2)cc1 assay_endpoint=TI recorded_result=20
chemical_structure=c1cnc(-c2ccc(CNCCCCNCc3ccc(-c4ncccn4)cc3)cc2)nc1 assay_endpoint=TI recorded_result=>25
chemical_structure=Cc1cc(CNCCCCNCc2ccc(N3CCCC3)c(C)c2)ccc1N1CCCC1 assay_endpoint=TI recorded_result=2
